Target: MARK2 (human) (UniProt Q7KZI7)
Sequence (Q7KZI7 whole entry, looked up): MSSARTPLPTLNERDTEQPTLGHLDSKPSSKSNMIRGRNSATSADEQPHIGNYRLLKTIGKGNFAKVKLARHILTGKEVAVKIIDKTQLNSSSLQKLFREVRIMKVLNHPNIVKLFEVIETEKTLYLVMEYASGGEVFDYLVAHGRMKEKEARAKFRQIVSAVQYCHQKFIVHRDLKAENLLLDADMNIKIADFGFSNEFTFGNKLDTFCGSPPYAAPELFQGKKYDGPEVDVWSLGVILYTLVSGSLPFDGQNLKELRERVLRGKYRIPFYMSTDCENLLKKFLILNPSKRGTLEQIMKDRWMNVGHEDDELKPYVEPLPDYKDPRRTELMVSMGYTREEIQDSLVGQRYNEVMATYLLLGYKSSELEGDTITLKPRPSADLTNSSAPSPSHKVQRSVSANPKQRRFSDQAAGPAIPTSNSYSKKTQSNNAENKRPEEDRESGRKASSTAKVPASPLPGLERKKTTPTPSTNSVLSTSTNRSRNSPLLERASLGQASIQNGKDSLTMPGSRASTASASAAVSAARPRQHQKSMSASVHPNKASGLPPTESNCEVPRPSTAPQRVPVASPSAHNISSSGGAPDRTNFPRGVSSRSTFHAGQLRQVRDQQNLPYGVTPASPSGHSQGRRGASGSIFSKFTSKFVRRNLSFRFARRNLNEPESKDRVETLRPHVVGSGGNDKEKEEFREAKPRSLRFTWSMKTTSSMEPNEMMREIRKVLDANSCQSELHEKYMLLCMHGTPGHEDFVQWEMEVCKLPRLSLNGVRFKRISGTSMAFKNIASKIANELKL
Test: radiometric filter-binding kinase assay, Kinase HotSpot
Details: compound 0.5 µM; ATP 10 µM
Reported residual activity values for the following compounds.
readout.name: residual activity (%)

- compound: "Nc1ncnc2[nH]nc(Nc3ccc(F)cc3)c12"
  readout.name: "residual activity"
  measured.value: 87
- compound: "O=C1Nc2ccc(Cl)cc2/C1=C/c1cc(Cl)c(O)c(Cl)c1"
  readout.name: "residual activity"
  measured.value: 79.7
- compound: "Cc1ccc(S(=O)(=O)/C=C/C#N)cc1"
  readout.name: "residual activity"
  measured.value: 84
- compound: "CO[C@H]1CC2CC[C@@H](C)[C@@](O)(O2)C(=O)C(=O)N2CCCC[C@H]2C(=O)OC([C@H](C)C[C@@H]2CC[C@@H](O)[C@H](OC)C2)CC(=O)[C@H](C)/C=C(\\C)[C@@H](O)[C@@H](OC)C(=O)[C@H](C)C[C@H](C)/C=C/C=C/C=C/1C (stereo partly specified)"
  readout.name: "residual activity"
  measured.value: 104
- compound: "Cc1[nH]c(/C=C2\\C(=O)Nc3ccc(S(=O)(=O)N(C)c4cccc(Cl)c4)cc32)c(C)c1C(=O)N1CCN(C)CC1"
  readout.name: "residual activity"
  measured.value: 44.1
- compound: "CCOC(=O)c1c(C)[nH]c(/C=C2\\C(=O)Nc3ccccc32)c1C"
  readout.name: "residual activity"
  measured.value: 87.6
- compound: "N#CC(C#N)=C(N)/C(C#N)=C/c1ccc(O)cc1"
  readout.name: "residual activity"
  measured.value: 91.3
- compound: "CC(C)N(CCC(=O)c1ccc2ccccc2c1)Cc1ccccc1"
  readout.name: "residual activity"
  measured.value: 97.9
- compound: "CCCC(=O)Oc1ccc2[nH]c(C(=O)c3cc4ccccc4[nH]3)cc2c1"
  readout.name: "residual activity"
  measured.value: 83.1
- compound: "CCC(=O)Nc1ccc2ncnc(Nc3cccc(Br)c3)c2c1"
  readout.name: "residual activity"
  measured.value: 73.5
- compound: "CC(=O)c1ccc(N2CCOCC2)cc1O"
  readout.name: "residual activity"
  measured.value: 107

----------
Reported residual activity values for the following molecules.
Target: TBK1 (human) (UniProt Q9UHD2)
Sequence (Q9UHD2 whole entry, looked up): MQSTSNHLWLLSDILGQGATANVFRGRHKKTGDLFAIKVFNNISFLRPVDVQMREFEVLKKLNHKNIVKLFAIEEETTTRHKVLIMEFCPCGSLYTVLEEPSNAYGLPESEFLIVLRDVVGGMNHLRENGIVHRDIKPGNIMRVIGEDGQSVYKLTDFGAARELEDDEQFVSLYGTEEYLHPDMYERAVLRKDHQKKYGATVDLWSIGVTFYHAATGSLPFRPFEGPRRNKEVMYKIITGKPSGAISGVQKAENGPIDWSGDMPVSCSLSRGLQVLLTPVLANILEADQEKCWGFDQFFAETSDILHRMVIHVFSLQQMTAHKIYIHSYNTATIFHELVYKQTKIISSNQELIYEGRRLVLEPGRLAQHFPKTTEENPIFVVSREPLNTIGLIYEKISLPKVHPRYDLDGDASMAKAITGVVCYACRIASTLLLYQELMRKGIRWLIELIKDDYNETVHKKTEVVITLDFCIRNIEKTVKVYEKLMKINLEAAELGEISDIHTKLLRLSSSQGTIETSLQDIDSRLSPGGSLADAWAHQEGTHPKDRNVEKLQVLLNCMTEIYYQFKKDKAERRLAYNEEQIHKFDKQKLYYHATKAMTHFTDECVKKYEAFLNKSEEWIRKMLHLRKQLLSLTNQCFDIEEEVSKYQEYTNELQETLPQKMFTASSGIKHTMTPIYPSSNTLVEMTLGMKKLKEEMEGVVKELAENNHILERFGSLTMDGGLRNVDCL
Assay: radiometric filter-binding kinase assay, Kinase HotSpot
Settings: compound 0.5 µM; ATP 10 µM
readout.name: residual activity (%)

- molecule: "Nc1cccc(-c2cc3c(Oc4cccc(O)c4)ncnc3[nH]2)c1"
  assay.target: "TBK1 (human) (UniProt Q9UHD2)"
  readout.name: "residual activity"
  measured.value: 92.9
- molecule: "O=C1NC(=O)/C(=C/c2ccc3c(c2)OC(F)(F)O3)S1"
  assay.target: "TBK1 (human) (UniProt Q9UHD2)"
  readout.name: "residual activity"
  measured.value: 93.3
- molecule: "O=c1cc(N2CCOCC2)oc2c1ccc1ccccc12"
  assay.target: "TBK1 (human) (UniProt Q9UHD2)"
  readout.name: "residual activity"
  measured.value: 102
- molecule: "CCCC(=O)Oc1ccc2[nH]c(C(=O)c3cc4ccccc4[nH]3)cc2c1"
  assay.target: "TBK1 (human) (UniProt Q9UHD2)"
  readout.name: "residual activity"
  measured.value: 119
- molecule: "COc1ccc(COc2ccc(Cc3cnc(N)nc3N)cc2OC)cc1"
  assay.target: "TBK1 (human) (UniProt Q9UHD2)"
  readout.name: "residual activity"
  measured.value: 103
- molecule: "CCC(=O)Nc1ccc2ncnc(Nc3cccc(Br)c3)c2c1"
  assay.target: "TBK1 (human) (UniProt Q9UHD2)"
  readout.name: "residual activity"
  measured.value: 95.6
- molecule: "Cc1ccc(Nc2nccc(N(C)c3ccc4c(C)n(C)nc4c3)n2)cc1S(N)(=O)=O"
  assay.target: "TBK1 (human) (UniProt Q9UHD2)"
  readout.name: "residual activity"
  measured.value: 99.5
- molecule: "O=C1NC(=O)c2c1c1c3ccccc3n3c1c1c2c2ccccc2n1C1CCC3O1"
  assay.target: "TBK1 (human) (UniProt Q9UHD2)"
  readout.name: "residual activity"
  measured.value: 7.4
- molecule: "CCN(CC)CCNC(=O)c1c(C)[nH]c(/C=C2\\C(=O)Nc3ccc(Cl)cc32)c1C"
  assay.target: "TBK1 (human) (UniProt Q9UHD2)"
  readout.name: "residual activity"
  measured.value: 16.3
- molecule: "Cc1[nH]c(/C=C2\\C(=O)Nc3ccc(S(=O)(=O)N(C)c4cccc(Cl)c4)cc32)c(C)c1C(=O)N1CCN(C)CC1"
  assay.target: "TBK1 (human) (UniProt Q9UHD2)"
  readout.name: "residual activity"
  measured.value: 60.4
- molecule: "CCN(CC)C(=O)c1ccc(Nc2nc(OCC3CCCCC3)c3nc[nH]c3n2)cc1"
  assay.target: "TBK1 (human) (UniProt Q9UHD2)"
  readout.name: "residual activity"
  measured.value: 25.4
- molecule: "CC(C)N(CCC(=O)c1ccc2ccccc2c1)Cc1ccccc1"
  assay.target: "TBK1 (human) (UniProt Q9UHD2)"
  readout.name: "residual activity"
  measured.value: 92.4
- molecule: "Cc1ccc(S(=O)(=O)/C=C/C#N)cc1"
  assay.target: "TBK1 (human) (UniProt Q9UHD2)"
  readout.name: "residual activity"
  measured.value: 83.9
- molecule: "Oc1cccc(-c2nc(N3CCOCC3)c3oc4ncccc4c3n2)c1"
  assay.target: "TBK1 (human) (UniProt Q9UHD2)"
  readout.name: "residual activity"
  measured.value: 93
- molecule: "Nc1ccc2ncnc(NCCc3ccc(Oc4ccccc4)cc3)c2c1"
  assay.target: "TBK1 (human) (UniProt Q9UHD2)"
  readout.name: "residual activity"
  measured.value: 100
- molecule: "O=C1Nc2ccc(Cl)cc2/C1=C/c1cc(Cl)c(O)c(Cl)c1"
  assay.target: "TBK1 (human) (UniProt Q9UHD2)"
  readout.name: "residual activity"
  measured.value: 86.8
- molecule: "N#CC(C#N)=C(N)/C(C#N)=C/c1ccc(O)cc1"
  assay.target: "TBK1 (human) (UniProt Q9UHD2)"
  readout.name: "residual activity"
  measured.value: 91.1
- molecule: "CNc1cc2c(Nc3cccc(Br)c3)ncnc2cn1"
  assay.target: "TBK1 (human) (UniProt Q9UHD2)"
  readout.name: "residual activity"
  measured.value: 94.5
- molecule: "Nc1ncnc2c1c(-c1ccc(Oc3ccccc3)cc1)cn2C1CCCC1"
  assay.target: "TBK1 (human) (UniProt Q9UHD2)"
  readout.name: "residual activity"
  measured.value: 92.7
- molecule: "Cc1ccc(NC2=CC(=O)c3sc(C)nc3C2=O)cc1"
  assay.target: "TBK1 (human) (UniProt Q9UHD2)"
  readout.name: "residual activity"
  measured.value: 94
- molecule: "O=C(Nc1cccc(Nc2nccc(Nc3cccc(C(F)(F)F)c3)n2)c1)C1CC1"
  assay.target: "TBK1 (human) (UniProt Q9UHD2)"
  readout.name: "residual activity"
  measured.value: 91
- molecule: "N#C/C(=C(/N)Sc1ccc(N)cc1)c1ccccc1C(F)(F)F"
  assay.target: "TBK1 (human) (UniProt Q9UHD2)"
  readout.name: "residual activity"
  measured.value: 98.1
- molecule: "CNC(=O)c1cc(Oc2ccc(NC(=O)Nc3ccc(Cl)c(C(F)(F)F)c3)cc2)ccn1"
  assay.target: "TBK1 (human) (UniProt Q9UHD2)"
  readout.name: "residual activity"
  measured.value: 98.6
- molecule: "CC[n+]1c(/C=C/N(C)c2ccccc2)n(-c2ccccc2)c2ccc(-c3nc4ccccc4s3)cc21"
  assay.target: "TBK1 (human) (UniProt Q9UHD2)"
  readout.name: "residual activity"
  measured.value: 95.7
- molecule: "CO[C@H]1CC2CC[C@@H](C)[C@@](O)(O2)C(=O)C(=O)N2CCCC[C@H]2C(=O)OC([C@H](C)C[C@@H]2CC[C@@H](O)[C@H](OC)C2)CC(=O)[C@H](C)/C=C(\\C)[C@@H](O)[C@@H](OC)C(=O)[C@H](C)C[C@H](C)/C=C/C=C/C=C/1C (some centres undefined)"
  assay.target: "TBK1 (human) (UniProt Q9UHD2)"
  readout.name: "residual activity"
  measured.value: 94.7
- molecule: "CC(=O)c1ccc(N2CCOCC2)cc1O"
  assay.target: "TBK1 (human) (UniProt Q9UHD2)"
  readout.name: "residual activity"
  measured.value: 99.1
- molecule: "Nc1ncnc2[nH]nc(Nc3ccc(F)cc3)c12"
  assay.target: "TBK1 (human) (UniProt Q9UHD2)"
  readout.name: "residual activity"
  measured.value: 99.6
- molecule: "O=C1NC(=O)C(c2cn(CCCn3ccnc3)c3ccccc23)=C1Nc1ccccc1"
  assay.target: "TBK1 (human) (UniProt Q9UHD2)"
  readout.name: "residual activity"
  measured.value: 48
- molecule: "c1ccc(-c2n[nH]c3c2oc2ccccc23)cc1"
  assay.target: "TBK1 (human) (UniProt Q9UHD2)"
  readout.name: "residual activity"
  measured.value: 105
- molecule: "COc1cc2ncnc(Nc3cccc(Cl)c3)c2cc1OC"
  assay.target: "TBK1 (human) (UniProt Q9UHD2)"
  readout.name: "residual activity"
  measured.value: 78
- molecule: "CC#CC(=O)Nc1cc2c(Nc3ccc(F)c(Cl)c3)ncnc2cn1"
  assay.target: "TBK1 (human) (UniProt Q9UHD2)"
  readout.name: "residual activity"
  measured.value: 105
- molecule: "COc1ccc2c(c[n+](C)c3c4cc5c(cc4ccc23)OCO5)c1OC"
  assay.target: "TBK1 (human) (UniProt Q9UHD2)"
  readout.name: "residual activity"
  measured.value: 96.2
- molecule: "CCOC(=O)c1c(C)[nH]c(/C=C2\\C(=O)Nc3ccccc32)c1C"
  assay.target: "TBK1 (human) (UniProt Q9UHD2)"
  readout.name: "residual activity"
  measured.value: 70.5
- molecule: "c1ccc(-c2n[nH]cc2-c2ccnc3ccccc23)nc1"
  assay.target: "TBK1 (human) (UniProt Q9UHD2)"
  readout.name: "residual activity"
  measured.value: 92.6
